Just for reference, paper PMC7782983 is where these values come from.

target: BteCAι; assay: stopped-flow CO2 hydrase assay; type: biochemical, Burkholderia territorii; details: CO2 hydration, HEPES pH 7.5, 20 mM NaClO4, 15 min preincubation, room temperature; Zn(II) enzyme; read-out: KI (mM)^a / BteCAι^d
Overview of recorded log10(Ki) for various compounds
Hey, these are logged values: log10 of Ki, mM being the unit before logging.

Sample answers from the record:
> print(dat)
                  compound  property.measured  result
1        N#C[SeH] [SeCN^−]          log10(Ki)    0.82
2                Cl [Cl^−]          log10(Ki)    0.49
3  NS(N)(=O)=O [NH2SO2NH2]          log10(Ki)   -1.07

Find the recorded log10(Ki) belonging to O=C(O)O [CO3^2−] and report it. 0.64

For the compound NS(=O)(=O)O [NH2SO3H] , what log10(Ki) is on record? -2.21

Give its log10(Ki) value. Item: CCN(CC)C(=S)S [EtNCS2^−] -0.09

State the recorded log10(Ki) for this entry: N#CS [SCN^−] 0.79

What value of log10(Ki) has been reported for the following compound? OB(O)c1ccccc1 [PhB(OH)2] -2.05

Sample O=C(O)O [HCO3^−] — what was its log10(Ki)? -0.03

Fill in the blank: the reported log10(Ki) of O=S(=O)(O)O [SO4^2−] is ____. 0.76

Please report the recorded log10(Ki) for [O]=[Sn]([OH])[OH] [SnO3^2−] . -1.03

Please give the measured log10(Ki) for this compound: O=S(=O)(O)OOS(=O)(=O)O [S2O8^2−] 0.87

Return reported log10(Ki); argument: N#CO [CNO^−] -0.10

----------
target: BteCAι; test: stopped-flow CO2 hydrase assay; assay type: biochemical, Burkholderia territorii; conditions: read-out: KI (mM)^a / BteCAι^d
Property Measured: Ki
I'd appreciate it if you included the unit after the number.

// returns reported Ki for input `O=[As](O)(O)c1ccccc1` 0.008 mM
